This section presents compounds with their documented inhibition at 1.7 µM values.
Molecular target: Human glucocorticoid receptors (Homo sapiens)
Construct: made in house; host or cells: Sf9 insect cells, recombinant baculovirus (BAC-TO-BAC)
Sequence (P04150 whole entry): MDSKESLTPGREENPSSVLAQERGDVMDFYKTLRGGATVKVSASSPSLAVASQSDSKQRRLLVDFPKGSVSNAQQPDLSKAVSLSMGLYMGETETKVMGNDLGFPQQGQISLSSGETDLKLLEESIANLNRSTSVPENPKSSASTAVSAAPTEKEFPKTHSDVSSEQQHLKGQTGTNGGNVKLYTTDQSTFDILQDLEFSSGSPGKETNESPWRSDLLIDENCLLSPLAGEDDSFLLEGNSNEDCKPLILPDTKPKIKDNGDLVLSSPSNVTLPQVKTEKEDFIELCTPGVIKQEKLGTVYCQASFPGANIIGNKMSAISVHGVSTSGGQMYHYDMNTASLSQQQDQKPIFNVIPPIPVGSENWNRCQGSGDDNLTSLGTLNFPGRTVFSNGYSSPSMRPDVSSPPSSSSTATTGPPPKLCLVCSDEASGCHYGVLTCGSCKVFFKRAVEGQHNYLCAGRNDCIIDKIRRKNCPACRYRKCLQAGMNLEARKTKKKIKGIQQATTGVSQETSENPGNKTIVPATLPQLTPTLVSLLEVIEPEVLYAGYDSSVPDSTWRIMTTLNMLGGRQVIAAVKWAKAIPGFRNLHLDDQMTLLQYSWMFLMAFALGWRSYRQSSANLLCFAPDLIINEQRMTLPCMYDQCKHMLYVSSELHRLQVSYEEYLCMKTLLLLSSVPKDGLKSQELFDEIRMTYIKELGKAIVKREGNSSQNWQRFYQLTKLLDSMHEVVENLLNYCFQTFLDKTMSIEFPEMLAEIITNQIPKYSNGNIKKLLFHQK
Test: Radioligand filter binding assay, displacement of 3[H]-dexamethasone from hGR
Conditions: read-out: GR Binding (% Inhibition at 1.7 μM)
# value in %; strip the unit string

Before answering, review these 4 worked examples.
>>> readout_value("CCOc1ccc(CN(Cc2ccc(F)cc2F)c2cccc(NS(C)(=O)=O)c2C)cc1")
90.4
>>> readout_value("Cc1c(NS(C)(=O)=O)cccc1N(Cc1ccccc1)Cc1ccc(Oc2ccc(CCC(=O)NCCCC(=O)O)cc2)cc1")
96
>>> readout_value("Cc1c(NS(C)(=O)=O)cccc1N(Cc1ccccc1)Cc1ccc(C(=O)c2cccc(OCCC3CC3)c2)cc1")
94.1
>>> readout_value("Cc1c(NS(C)(=O)=O)cccc1N(Cc1ccccc1)Cc1ccc(Oc2ccc(OCCCCC(=O)NCCCC(=O)O)cc2)cc1")
91.7

Field inhibition at 1.7 µM (entry `Cc1c(NS(C)(=O)=O)cccc1N(Cc1ccccc1)Cc1ccc(Oc2ccc(OCCCC(=O)Nc3cc(C(=O)O)n(C)c3)cc2)cc1` ) reads 90.6

Field inhibition at 1.7 µM (entry `Cc1c(NS(C)(=O)=O)cccc1N(Cc1ccc(Oc2cccc(OCCCC(=O)N(C)CC(=O)O)c2)cc1)Cc1ccc(F)cc1F` ) reads 97

Field inhibition at 1.7 µM (entry `Cc1c(NS(C)(=O)=O)cccc1N(Cc1ccccc1)Cc1ccc(Oc2ccc(OCCCCC(=O)N[C@@H](CCC(=O)O)C(=O)O)cc2)cc1` ) reads 90

Field inhibition at 1.7 µM (entry `Cc1c(NS(C)(=O)=O)cccc1N(Cc1ccccc1)Cc1ccc(Oc2cccc(OCC3(C)COC3)c2)cc1` ) reads 89.7

Field inhibition at 1.7 µM (entry `Cc1c(NS(C)(=O)=O)cccc1N(Cc1ccc(Oc2cccc(OCCCC(=O)NCCC(=O)O)c2)cc1)Cc1ccc(F)cc1F` ) reads 97.4

All figures here come from patent US6583180B2.
